Reference for the values: PubChem BioAssay AID1159580

- ASSAY SUMMARY: chemical genetic growth profiling, strain panel (AID 1159580);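 also: tested at 20 µM; growth read once vehicle control cultures reached saturation at 30 °C; 1 = growth at the plate median or of vehicle wells; lower values mean less growth of the strain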
- ASSAY CONTEXT: S. cerevisiae deletion strains, growth OD, locus YAL026C, strain drs2, hits give low values
About 2,000 (36%) of roughly 5,500 compounds were called active. Another 18% or so got no clear call; they are omitted. Some of the results follow.
MEASURED QUANTITY: normalized growth
Answers are plain numbers.

Check out these entries, answers already filled in.
COMPOUND: COC(=O)c1c(C)cc(OC)cc1O
normalized growth: 0.984
//
COMPOUND: O=C(O[C@@H]1Cc2c(O)cc(O)cc2O[C@@H]1c1cc(O)c(=O)c2c(O)c(O)cc([C@H]3Oc4cc(O)cc(O)c4C[C@H]3O)c2c1)c1cc(O)c(O)c(O)c1
normalized growth: 0.46
//
COMPOUND: O=c1ccc2cc(OC3OC(CO)C(O)C(O)C3O)c(O)cc2o1 (stereo unspecified)
normalized growth: 1
//
COMPOUND: O=C(O[C@@H]1Cc2c(O)cc(O)cc2O[C@@H]1c1cc(O)c(=O)c2c(O)c(O)cc([C@H]3Oc4cc(O)cc(O)c4C[C@H]3OC(=O)c3cc(O)c(O)c(O)c3)c2c1)c1cc(O)c(O)c(O)c1
normalized growth: 0.432
//
COMPOUND: CCC(=O)c1c(O)cc(O)cc1O
normalized growth: 0.975
//
COMPOUND: NC(=NCCC[C@H](N)C(=O)O)N[N+](=O)[O-]
normalized growth: 1.03
//
COMPOUND: C=C(C)[C@H]1COc2cc3oc(=O)ccc3cc2O1
normalized growth: 0.51
//
COMPOUND: CCOC(=O)c1c(C)cc(OC)cc1O
normalized growth: 0.977
//
COMPOUND: Cc1cc(OC(=O)c2c(C)cc(O)cc2O)cc(O)c1C(=O)O
normalized growth: 0.991
//
COMPOUND: C=C[C@H]1CN2CC[C@H]1C[C@@H]2[C@@H](OC(=O)OCC)c1ccnc2ccc(OC)cc12
normalized growth: 1.01

As a next step, examine the compound that follows.
Item: COC(=O)c1c(C)cc(O)cc1O | normalized growth: 1
